The measured values listed here are drawn from ChEMBL document CHEMBL4808184.

- experiment_description: in vitro
- condition_summary: human, Caco-2
quantity_name: efflux ratio

Qu. Can you look up the measured efflux ratio of Cc1c(N2CC[C@@H](C3(N)CC3)C2)c(F)cc2cc(C(=O)O)c(=O)n(C3CC3)c12 for me?
Ans. 0.91

Qu. Can you look up the measured efflux ratio of C[C@H]1COc2c(N3CC[C@@H](C4(N)CC4)C3)c(F)cc3cc(C(=O)O)c(=O)n1c23 for me?
Ans. 0.9

Qu. Can you look up the measured efflux ratio of C[C@H](N)[C@@H]1CCN(c2c(F)cc3cc(C(=O)O)c(=O)n4c3c2OC[C@@H]4C)C1 for me?
Ans. 1.7
